measurement_label: melting point

Some entries whose results are on file:
                                   compound  measurement_label         result
0  COCC1=NC(NC(=O)Nc2cccc(C)c2)C(=O)N(CC(=O)N2CC3CCC(CC3)C2)c2c(C)cccc21 (stereo not given)      melting point  178 to 182 °C
1           C=C(C)C(=O)c1ccc2c(c1)oc(=O)n2C      melting point         127 °C
2  COc1ccc(CNS(=O)(=O)Cc2ccc3[nH]cc(CC#N)c3c2)cc1      melting point  144 to 145 °C
3  O=C(CCCCCCCCC(=O)OC1CCN(O)CC1)OC1CCN(O)CC1      melting point  133 to 135 °C
4  CC(C)(C)c1cccc(S(=O)(=O)n2c(C(O)c3ccc(C(=O)O)s3)cc3cc(C(F)(F)F)ccc32)c1 (stereo not given)      melting point          90 °C

Consider now this further compound.
Inquiry: Any idea what melting point was measured for CS(=O)c1ccc2c3c(cccc13)C(=O)N2 (stereo not given) ?
Reply text: 178 to 185 °C

---

Listing: melting point of selected compounds

                                   compound         result
0  O=C(NC1CC1)c1ccc(F)c2c1CC(N(CCCc1c[nH]c3ccc(F)cc13)C1CCC1)CO2 (centres undefined)         134 °C
1  COc1ccc(C2OC3(CCNCC3)N3CCCCC23)cc1 (centres undefined)  128 to 130 °C
2  CC(C)(N)C(=O)NCCn1ccc2ncnc(Nc3ccc(Oc4cccc5sncc45)c(Cl)c3)c21         198 °C
3  CC(C#CCn1ccnc1)N1CCN(C)C1=O (centres undefined)    89 to 92 °C
4  CCN(CC)C(=O)C1CCC2C3CC=C4N(C)C(=O)CCC4(C)C3CCC12C (centres undefined)  115 to 118 °C
5  CCOC(=O)C1=C(C)NC(C)=C(C(=O)OC)C1c1cccc(C#N)c1 (centres undefined)         150 °C
6  CC1=C(c2ccc(Cl)cc2)n2ncc3c(=O)[nH]c(=S)n(c32)C1  283 to 285 °C
7  COC(=O)c1c(C(F)F)nc(C(F)(F)F)c(C(=O)OC)c1O  83 to 84.5 °C

Consider now this further compound.
Inquiry: Any idea what melting point was measured for CN(C)S(=O)(=O)CCCOc1ccc2ncnn2n1 ?
Reply text: 151 to 153 °C

---

measurement_label: melting point

Some entries whose results are on file:
                                   compound  measurement_label         result
0  NC1=C(C(=O)c2ccc(Br)s2)C2=C(CCCC2)S1=O (stereo not drawn)      melting point  160 to 163 °C
1  O=C(Cc1ccc(O)cc1)OCCC(c1ccccc1)(c1ccccc1)c1ccccc1      melting point  136 to 138 °C
2       O=c1nc(-c2ccc(F)cc2)c2c([nH]1)CCCC2      melting point  248 to 253 °C

Inquiry: Any idea what melting point was measured for CCOC(=O)CC(=O)CNC(=O)CCc1cc(-c2ccc(C(F)(F)F)cc2)oc1C ?
Reply text: 131 to 133 °C

Inquiry: Next entry: COc1ccccc1N1CCN(CCNc2ccccn2)CC1
Reply text: 89 to 94 °C

Inquiry: Next entry: Cc1ccc(-c2nc3n(n2)Cc2ccccc2-3)cc1
Reply text: 207 to 208 °C

Inquiry: Next entry: O=c1c(Cc2cccnc2)cn2c3c(cc(Cl)cc13)Oc1cc(Cl)ccc1-2
Reply text: 170 to 171 °C

Inquiry: Next entry: CSc1ccc(-c2nc(SC)c(C(=O)O)c(=O)n2-c2ccc(C)cc2)cc1
Reply text: 173 to 175 °C

Inquiry: Next entry: CS(=O)(=O)c1ccc(-c2cnn(CC(F)(F)F)c(=O)c2-c2ccc(Cl)c(Cl)c2)cc1
Reply text: 197 to 198 °C

Inquiry: Next entry: COC(=O)C(=CNc1ccc(F)c(F)c1OCC(C)OS(=O)(=O)c1ccc(C)cc1)C(=O)OC (stereo not drawn)
Reply text: 89 to 90 °C

Inquiry: Next entry: COc1ccc([N+](=O)[O-])c(CS(=O)(=O)c2ccccc2)c1
Reply text: 167 to 169 °C

Inquiry: Next entry: CC(C)(C)OC(=O)N(Cc1ncccc1C(N)=NO)C(=O)OC(C)(C)C
Reply text: 178 to 180 °C

Inquiry: Next entry: Cc1cc(Br)cnc1CCCCNc1ncc(Cc2ccc(CO)nc2)c(=O)[nH]1
Reply text: 61 to 70 °C
